pIC50 reference
molecular target: dog GST P1-1 (Canis lupus familiaris)
By convention, pIC50 is the negative base-10 log of a molar concentration.

>  <COMPOUND>
Nc1c(S(=O)(=O)O)cc(Nc2ccc(Nc3nc(Cl)nc(Nc4ccccc4S(=O)(=O)O)n3)c(S(=O)(=O)O)c2)c2c1C(=O)c1ccccc1C2=O

>  <NUMERIC VALUE>
7.37

$$$$

Please find the next compound below.
Request the reported pIC50 associated with [Cl][Sn]([c]1ccccc1)([c]1ccccc1)[c]1ccccc1 [Triphenyltin chloride] 5.51

###

biological target: dog GST P1-1 (Canis lupus familiaris, UniProt A0A8I3QRM6); format: biochemical; details: compound as substrate with GSH; 30 °C; substrate-specific concentrations and pH
Sequence (A0A8I3QRM6 1-210): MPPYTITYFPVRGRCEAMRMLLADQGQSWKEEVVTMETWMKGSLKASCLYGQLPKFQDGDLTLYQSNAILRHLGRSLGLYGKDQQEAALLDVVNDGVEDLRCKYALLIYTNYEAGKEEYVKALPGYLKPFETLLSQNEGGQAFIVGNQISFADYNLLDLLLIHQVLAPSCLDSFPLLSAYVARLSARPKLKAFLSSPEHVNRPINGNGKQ
Category | rule: reported Specific Activity, Dog GST P1-1 within range, see low bin = under 0.1 µmol/min/mg, mid bin = from 0.1 µmol/min/mg up to 2 µmol/min/mg, high bin = 2 µmol/min/mg and over

>  <COMPOUND>
C[C@]12CCC(=O)CC1=CC[C@@H]1[C@@H]2CC[C@]2(C)C(=O)CC[C@@H]12 [Δ^5-androstene-3,17-dione]

>  <QUALITATIVE LABEL>
low bin

$$$$
>  <COMPOUND>
S=C=NCc1ccccc1 [Benzyl isothiocyanate]

>  <QUALITATIVE LABEL>
high bin

$$$$
>  <COMPOUND>
CCCCCCCCC/C=C/C=O [trans-2-Dodecenal]

>  <QUALITATIVE LABEL>
low bin

$$$$
>  <COMPOUND>
CCCN=C=S [Propyl isothiocyanate]

>  <QUALITATIVE LABEL>
high bin

$$$$
>  <COMPOUND>
O=[N+]([O-])c1ccc(Cl)c([N+](=O)[O-])c1 [1-Chloro-2,4-dinitrobenzene]

>  <QUALITATIVE LABEL>
high bin

$$$$
>  <COMPOUND>
CCCCCC/C=C/C=O [trans-2-Nonenal]

>  <QUALITATIVE LABEL>
mid bin

$$$$
>  <COMPOUND>
C=CCN=C=S [Allyl isothiocyanate]

>  <QUALITATIVE LABEL>
mid bin

$$$$
>  <COMPOUND>
CCCCCCC/C=C/C=O [trans-2-Decenal]

>  <QUALITATIVE LABEL>
mid bin

$$$$

For the record CC(C)(OO)c1ccccc1 [Cumene hydroperoxide] , report the class its Specific Activity, Dog GST P1-1 corresponds to. low bin

Same question for S=C=NCCc1ccccc1 [Phenethyl isothiocyanate] please. high bin

Another compound: S=C=NC1CCCCC1 [Cyclohexyl isothiocyanate] mid bin
